- Tgt: T1, C-terminally FLAG-tagged human Gas6 recombinant protein (hGas6-F) (human, UniProt Q14393 31-678, gamma-carboxylated glutamic acid residues in the Gla domain (producer cells co-express rat VKOR and human GGCX); positions not given)
- T1 construct: also called human Gas6-F; human Gas6 protein
- T1 sequence: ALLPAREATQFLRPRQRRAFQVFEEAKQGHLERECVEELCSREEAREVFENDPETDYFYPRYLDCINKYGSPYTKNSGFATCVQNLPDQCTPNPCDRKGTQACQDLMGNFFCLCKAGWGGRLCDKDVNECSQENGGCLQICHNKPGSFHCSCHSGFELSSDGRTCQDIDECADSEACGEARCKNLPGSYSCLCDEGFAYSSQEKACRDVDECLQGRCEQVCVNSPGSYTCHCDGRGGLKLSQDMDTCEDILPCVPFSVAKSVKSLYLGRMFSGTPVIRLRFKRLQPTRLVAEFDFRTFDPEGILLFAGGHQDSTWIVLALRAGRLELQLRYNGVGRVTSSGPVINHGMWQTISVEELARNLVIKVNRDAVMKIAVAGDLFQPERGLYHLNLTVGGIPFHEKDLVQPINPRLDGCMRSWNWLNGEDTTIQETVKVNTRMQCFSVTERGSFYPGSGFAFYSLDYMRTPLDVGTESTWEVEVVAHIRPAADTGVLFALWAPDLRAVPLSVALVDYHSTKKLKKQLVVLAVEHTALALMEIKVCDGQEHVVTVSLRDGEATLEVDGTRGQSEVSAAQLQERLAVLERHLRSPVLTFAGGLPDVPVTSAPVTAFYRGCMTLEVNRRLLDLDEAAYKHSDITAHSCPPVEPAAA
- Assay name: SPR Biacore T100, captured antibody, Gas6 analyte, first test
Can you tell me koff for the items I'm about to list?
Quick note: give the figure in s⁻¹, leave out the unit.

May I ask what koff has been recorded for hzKM5320 LV5HV4 antibody (antibody, V domains shown, Humanized; variant human IgG4 constant region (EU S228P, L235E, R409K), human kappa; also called A-24) VH: QVQLVQSGPELKKPGASVKVSCKASGYTFTNYGMNWVRQAPGQGLKWMGWINTETGEPTYSDDFKGRFVFSLDTSVSTAYLQISSLKAEDTATYFCAREDGYYGTLDYWGQGTTVTVSS VL: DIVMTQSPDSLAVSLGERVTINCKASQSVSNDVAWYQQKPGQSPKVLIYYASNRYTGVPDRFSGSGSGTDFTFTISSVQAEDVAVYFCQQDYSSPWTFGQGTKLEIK ? 0.000173

May I ask what koff has been recorded for hzKM5321 LV7aHV0 antibody (antibody, V domains shown, Humanized; variant human IgG4 constant region (EU S228P, L235E, R409K), human kappa; also called B-09; LV7aHV0) VH: QVHLVQSGSELKKPGASVKISCKASGYTFTNYGMNWVRQAPGQGLEWMGWINTNTGEPTYTEEFKGRFVFSLDTSVTTSYLQISTLKAEDTAVYFCARDEGWFVYWGQGTLVTVSS VL: ETTLTQSPSSLSVSTGDRVTITCITSTDIDDDMNWYQQKPGKPPKLLISEGNTLRPGVPSRFSSSGSGTDFTFTISSTQPEDFADYYCLQTDSVPLTFGQGTKVEIK ? 0.000188

May I ask what koff has been recorded for hzKM5320 LV0HV8 antibody (antibody, V domains shown, Humanized; variant human IgG4 constant region (EU S228P, L235E, R409K), human kappa; also called A-10) VH: QIQLVQSGPELKKPGASVKISCKASGYTFTNYGMNWVKQAPGQGLKWMGWINTETGEPTYSDDFKGRFVFSLDTSVTTAYLQISSLKAEDTATYFCAREDGYYGTLDYWGQGTTVTVSS VL: DVVMTQSPDSLAVSLGERVTINCKASQSVSNDVAWYQQKPGQSPKLLIYYASNRYTGVPDRFSGSGSGTDFTLTISSLQAEDVAVYYCQQDYSSPWTFGQGTKLEIK ? 0.000714
